tested on: HL-60; test: NCI tumour cell line growth inhibition, 48 h
Activity calls are given as the source filed them. Cut-off read from the data, not from the text of the source: active = GI50 up to about 1.1 µM and inactive = higher.
Could you please report measured GI50 for the items listed next?

[in] Hello, I am looking for reported GI50 with HL-60 for COc1cc2c3c(n(C)c(=O)c2cc1OC)-c1cc2c(cc1/C3=C\CCCI)OCO2 . Could you help?
[out] > 47.1 µM (inactive)

[in] Entry to check: N#C/C(=C\c1cc(Br)c(O)c(Br)c1)c1cccnc1
[out] 27 µM (inactive)

[in] Entry to check: O=C(NO)c1ccc(OCc2cccc(Cl)c2)cc1
[out] 2.47 µM (inactive)

[in] Entry to check: O=c1c(-c2ccccc2)c(SCCCN2CCN(c3cccc(Cl)c3)CC2)n(-c2ccccc2)c(=S)n1-c1ccccc1
[out] > 100 µM (inactive)

[in] Entry to check: CCOC(=O)C1S/C(=N\c2ccc(Cl)cc2)N=C1C (stereo unspecified)
[out] 23 µM (inactive)

[in] Entry to check: O=c1[nH]c(=S)[nH]c(-c2ccccc2)c1Cc1c(O)ccc2ccccc12
[out] 20.6 µM (inactive)

[in] Entry to check: CCC(=O)c1ccc2[nH]c3c(C)c4c(O)cc(C)nc4c(C)c3c2c1
[out] > 100 µM (inactive)

[in] Entry to check: CC(C)c1cc2c(c(O)c1O)[C@@]1(C)CCCC(C)(C)C1=C(O)C2
[out] 1.34 µM (inactive)

[in] Entry to check: CP1(=O)CCCCC1
[out] > 100 µM (inactive)

[in] Entry to check: CCCCSC1=N/C(=C\c2ccccc2O)C(Cl)=N1
[out] > 100 µM (inactive)

[in] Entry to check: Oc1ccc[n+](Cc2ccccc2)c1
[out] > 100 µM (inactive)
